Examples of compounds with documented EC50 follow.
Target: USP7 (Homo sapiens)
Construct: full length human USP7 protein
Sequence (Q93009 whole entry): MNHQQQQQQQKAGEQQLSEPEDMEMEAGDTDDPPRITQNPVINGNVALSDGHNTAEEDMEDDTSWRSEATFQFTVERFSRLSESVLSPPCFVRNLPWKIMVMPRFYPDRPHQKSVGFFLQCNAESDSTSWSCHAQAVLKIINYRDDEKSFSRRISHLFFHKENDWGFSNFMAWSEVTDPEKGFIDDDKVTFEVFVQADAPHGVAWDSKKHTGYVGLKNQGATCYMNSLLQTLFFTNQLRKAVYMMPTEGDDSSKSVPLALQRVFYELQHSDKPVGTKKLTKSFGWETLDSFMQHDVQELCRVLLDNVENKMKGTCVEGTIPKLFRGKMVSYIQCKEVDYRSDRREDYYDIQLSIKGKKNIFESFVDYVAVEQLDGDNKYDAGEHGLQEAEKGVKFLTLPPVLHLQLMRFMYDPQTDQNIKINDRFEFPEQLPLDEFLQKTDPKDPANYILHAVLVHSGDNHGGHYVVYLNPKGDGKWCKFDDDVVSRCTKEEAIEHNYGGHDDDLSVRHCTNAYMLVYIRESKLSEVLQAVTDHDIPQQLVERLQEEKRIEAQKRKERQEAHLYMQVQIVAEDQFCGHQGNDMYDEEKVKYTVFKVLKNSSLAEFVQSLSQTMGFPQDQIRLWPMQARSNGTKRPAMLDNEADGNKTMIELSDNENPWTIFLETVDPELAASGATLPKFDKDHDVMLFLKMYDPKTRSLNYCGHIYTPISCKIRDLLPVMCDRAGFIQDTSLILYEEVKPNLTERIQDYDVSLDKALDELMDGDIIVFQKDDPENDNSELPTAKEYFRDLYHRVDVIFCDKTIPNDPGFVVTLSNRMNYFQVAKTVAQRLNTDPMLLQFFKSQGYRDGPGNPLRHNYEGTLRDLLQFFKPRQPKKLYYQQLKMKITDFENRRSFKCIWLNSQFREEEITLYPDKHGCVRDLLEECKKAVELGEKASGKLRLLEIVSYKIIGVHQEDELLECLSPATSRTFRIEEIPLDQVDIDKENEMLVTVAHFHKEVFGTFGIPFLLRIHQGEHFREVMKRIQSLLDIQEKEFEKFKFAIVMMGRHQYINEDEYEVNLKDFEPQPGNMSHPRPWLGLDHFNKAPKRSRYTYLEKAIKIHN
Assay: USP7, Ub-PLA2 assay
Conditions: Ub-PLA2 / NBD C6-HPC fluorescence, 30 minute preincubation; read-out: EC50 for inhibition of USP7
Readout type: EC50

[[record]]
compound = "CC(=O)Nc1cccc(CNC(=O)c2cc([N+](=O)[O-])c(Sc3c(Cl)cncc3Cl)s2)c1"
readout_type = "EC50"
measured_value = "≤ 1 µM"

[[record]]
compound = "CN1CCC(O)(CNC(=O)c2cc([N+](=O)[O-])c(Sc3c(Cl)cncc3Cl)s2)CC1"
readout_type = "EC50"
measured_value = "1 to 10 µM"

[[record]]
compound = "COc1ccc(CNC(C)c2cc([N+](=O)[O-])c(Sc3ccc(Cl)cc3Cl)s2)cc1 (centres unmarked)"
readout_type = "EC50"
measured_value = "> 10 µM"

[[record]]
compound = "O=C(NCC(=O)N1CCC(CO)CC1)c1cc([N+](=O)[O-])c(Sc2c(Cl)cncc2Cl)s1"
readout_type = "EC50"
measured_value = "1 to 10 µM"

[[record]]
compound = "O=C(NCc1cccc(C(F)(F)F)c1)c1cc([N+](=O)[O-])c(Sc2c(Cl)cncc2Cl)s1"
readout_type = "EC50"
measured_value = "≤ 1 µM"

[[record]]
compound = "COc1ccccc1CNC(=O)c1cc([N+](=O)[O-])c(Sc2c(Cl)cncc2Cl)s1"
readout_type = "EC50"
measured_value = "1 to 10 µM"

[[record]]
compound = "O=C(NCc1cccc(OC(F)F)c1)c1cc([N+](=O)[O-])c(Sc2c(Cl)cncc2Cl)s1"
readout_type = "EC50"
measured_value = "≤ 1 µM"

[[record]]
compound = "Cc1cc(NC(=O)c2cc([N+](=O)[O-])c(Sc3c(Cl)cncc3Cl)s2)n(CCN(C)C)n1"
readout_type = "EC50"
measured_value = "≤ 1 µM"

[[record]]
compound = "CC(=O)c1cc([N+](=O)[O-])c(Sc2ccncc2Cl)s1"
readout_type = "EC50"
measured_value = "> 10 µM"

[[record]]
compound = "CCOC(=O)CNC(=O)c1cc([N+](=O)[O-])c(Sc2c(Cl)cncc2Cl)s1"
readout_type = "EC50"
measured_value = "1 to 10 µM"

[[record]]
compound = "O=C(NC1CCCCC1)c1cc([N+](=O)[O-])c(Sc2c(Cl)cncc2Cl)s1"
readout_type = "EC50"
measured_value = "≤ 1 µM"

[[record]]
compound = "NC(=O)C1CCN(CCCNC(=O)c2cc([N+](=O)[O-])c(Sc3c(Cl)cncc3Cl)s2)CC1"
readout_type = "EC50"
measured_value = "≤ 1 µM"

[[record]]
compound = "CC1(C)CC(NC(=O)c2cc([N+](=O)[O-])c(Sc3c(Cl)cncc3Cl)s2)CC(C)(C)N1"
readout_type = "EC50"
measured_value = "≤ 1 µM"

[[record]]
compound = "O=C(Nc1cccc(Cl)c1)c1cc([N+](=O)[O-])c(Sc2c(Cl)cncc2Cl)s1"
readout_type = "EC50"
measured_value = "≤ 1 µM"

[[record]]
compound = "O=C(NCc1ccco1)c1cc([N+](=O)[O-])c(Sc2c(Cl)cncc2Cl)s1"
readout_type = "EC50"
measured_value = "1 to 10 µM"

[[record]]
compound = "Cc1ccsc1CNC(=O)c1cc([N+](=O)[O-])c(Sc2c(Cl)cncc2Cl)s1"
readout_type = "EC50"
measured_value = "1 to 10 µM"

[[record]]
compound = "O=Cc1cc([N+](=O)[O-])c(Sc2ccc(Cl)cc2Cl)s1"
readout_type = "EC50"
measured_value = "1 to 10 µM"

[[record]]
compound = "O=C(c1cc([N+](=O)[O-])c(Sc2c(Cl)cncc2Cl)s1)N1CCC(CO)CC1"
readout_type = "EC50"
measured_value = "1 to 10 µM"

[[record]]
compound = "O=C(Nc1ccon1)c1cc([N+](=O)[O-])c(Sc2c(Cl)cncc2Cl)s1"
readout_type = "EC50"
measured_value = "≤ 1 µM"

[[record]]
compound = "O=C(NCCN1CCOCC1)c1cc([N+](=O)[O-])c(Sc2c(Cl)cncc2Cl)s1"
readout_type = "EC50"
measured_value = "1 to 10 µM"

[[record]]
compound = "CC1(C)CCN(C(=O)c2cc([N+](=O)[O-])c(Sc3c(Cl)cncc3Cl)s2)CC1"
readout_type = "EC50"
measured_value = "1 to 10 µM"

[[record]]
compound = "O=C(NCc1ccc(-c2ccccc2)cc1)c1cc([N+](=O)[O-])c(Sc2c(Cl)cncc2Cl)s1"
readout_type = "EC50"
measured_value = "1 to 10 µM"

[[record]]
compound = "CC(=O)c1cc([N+](=O)[O-])c(Sc2c(Cl)cncc2Cl)s1"
readout_type = "EC50"
measured_value = "1 to 10 µM"

